These measurements were taken from patent US20240360228A1.

Listed here are binders together with their documented % Positive cells.
Biological target: T1, human CCR8 (human, UniProt P51685 1-355)
T1 construct: Native CCR8 on human PBMC (CCR8+ CD3+ or CCR8+ CD4+ lymphocytes); also called chemokine (C-C motif) receptor 8
T1 sequence (P51685 whole entry): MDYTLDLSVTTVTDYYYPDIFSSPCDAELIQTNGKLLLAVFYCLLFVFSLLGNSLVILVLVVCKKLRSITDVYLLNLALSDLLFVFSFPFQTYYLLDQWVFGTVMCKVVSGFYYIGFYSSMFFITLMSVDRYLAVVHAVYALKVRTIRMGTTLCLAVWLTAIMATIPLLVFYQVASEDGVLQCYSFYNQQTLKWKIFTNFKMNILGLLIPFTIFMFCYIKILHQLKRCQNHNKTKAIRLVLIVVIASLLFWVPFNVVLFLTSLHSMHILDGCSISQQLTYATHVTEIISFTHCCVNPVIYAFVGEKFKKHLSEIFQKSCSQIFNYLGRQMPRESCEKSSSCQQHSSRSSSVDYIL
Assay: flow blocking, PBMC CCR8+CD4+; competitor PE-AB3
Note: unit % is implicit; provide only the numeric part.

AB13 (antibody, V domains shown, Hybridoma monoclonal; also called antibody 13; clone 13) VH: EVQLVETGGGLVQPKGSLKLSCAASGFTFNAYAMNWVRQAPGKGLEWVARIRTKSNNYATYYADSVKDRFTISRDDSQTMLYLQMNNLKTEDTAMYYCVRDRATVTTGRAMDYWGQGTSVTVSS VL: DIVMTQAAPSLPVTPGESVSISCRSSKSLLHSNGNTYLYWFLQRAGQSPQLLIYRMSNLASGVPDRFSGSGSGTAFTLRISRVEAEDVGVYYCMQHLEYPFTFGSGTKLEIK	2.04
AB8 (antibody, V domains shown, Hybridoma monoclonal; also called antibody 8; clone 8) VH: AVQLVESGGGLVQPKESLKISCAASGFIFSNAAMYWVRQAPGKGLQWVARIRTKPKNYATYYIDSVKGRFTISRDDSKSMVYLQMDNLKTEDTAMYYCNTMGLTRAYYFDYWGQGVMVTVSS VL: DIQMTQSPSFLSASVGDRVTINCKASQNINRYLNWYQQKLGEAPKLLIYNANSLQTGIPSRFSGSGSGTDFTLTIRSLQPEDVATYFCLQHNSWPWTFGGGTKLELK	2.18
AB4 (antibody, V domains shown, Hybridoma monoclonal; also called antibody 4; clone 4) VH: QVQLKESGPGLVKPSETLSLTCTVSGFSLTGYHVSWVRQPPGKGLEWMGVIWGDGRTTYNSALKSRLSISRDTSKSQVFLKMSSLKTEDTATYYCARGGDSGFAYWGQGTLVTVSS VL: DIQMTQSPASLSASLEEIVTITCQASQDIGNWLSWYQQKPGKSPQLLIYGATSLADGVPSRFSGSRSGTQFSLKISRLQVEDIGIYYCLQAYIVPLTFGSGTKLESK	0.03
AB11 (antibody, V domains shown, Hybridoma monoclonal; also called antibody 11; clone 11) VH: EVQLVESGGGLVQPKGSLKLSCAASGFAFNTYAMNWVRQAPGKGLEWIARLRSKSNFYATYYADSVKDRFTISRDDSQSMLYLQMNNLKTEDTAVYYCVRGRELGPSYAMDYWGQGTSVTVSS VL: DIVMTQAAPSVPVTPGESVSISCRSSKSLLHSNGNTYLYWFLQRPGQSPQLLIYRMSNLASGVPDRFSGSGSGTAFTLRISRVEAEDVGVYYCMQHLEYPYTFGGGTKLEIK	2.16

Task: Find the measured % Positive cells of AB14 (antibody, V domains shown, Hybridoma monoclonal; Same VH/VL entries as AB15; also called antibody 14; clone 14) VH: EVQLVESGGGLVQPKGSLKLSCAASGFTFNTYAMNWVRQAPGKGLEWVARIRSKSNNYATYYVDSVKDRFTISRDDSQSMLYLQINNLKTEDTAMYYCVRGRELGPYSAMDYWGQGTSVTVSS VL: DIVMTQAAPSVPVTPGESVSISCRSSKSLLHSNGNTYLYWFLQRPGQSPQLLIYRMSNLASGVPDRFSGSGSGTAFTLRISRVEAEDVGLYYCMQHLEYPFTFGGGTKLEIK and report it.
Output: 2.18
